- assayed_target: Fuc(a1-2)Gal(b1-4)GlcNAc
- experiment_summary: glycan array binding signal (z-score within array); higher = stronger binding
- condition_parameters: glycan notation: IUPAC condensed, linker removed
The sample as a whole holds a higher share of the strongest signals than the screen did.

{"binder": "Gz-CVNH (Gibberella zeae) (protein) MGSSHHHHHHSSGLVPRGSHMGNFHESSNNIWLEDGHILHAECGNGEGDYVESTLDLDYYIGNDDGSFSWGGENFSGSASNITLDIEGDDNIPVLRAELNPMDGDPVEANVNLSERIGNDCGTLIFLA", "glycan array binding signal (z-score)": -0.133}
{"binder": "CBM40 CPF071 (Clostridium perfringens) (protein) MAHHHHHHVGTGSNDDDDKSPDPMLSSLGEYKDINLESSNASNITYDLEKYKNLDEGTIVVRFNSKDSKIQSLLGISNSKTKNGYFNFYVTNSRVGFELRNQKNEGNTQNGTENLVHMYKDVALNDGDNTVALKIEKNKGYKLFLNGKMIKEVKDTNTKFLNNIENLDSAFIGKTNRYGQSNEYNFKGNIGFMNIYNEPLGDDYLLSKTGETK", "glycan array binding signal (z-score)": -0.027}

Cited source for all entries: the supplement of paper PMC8728848
